# protocol notes: In vivo biodistribution in mice
# Design: species or system normal CD-1 male mice
# condition info: iv, 30 min

molecule | bone to muscle ratio
O=C([O-])CN(CCN(CC(=O)[O-])Cc1cc(CCC(=O)N[C@@H](CC(=O)O)C(=O)O)ccc1[O-])Cc1cc(CCC(=O)NC(P(=O)(O)O)P(=O)(O)O)ccc1[O-].[68Ga+3] [[^68Ga]1e] | 67
[18F-].[Na+] [[^18F]NaF, reference compound] | 73
O=C([O-])CN(CCN(CC(=O)[O-])Cc1cc(CCC(=O)N[C@@H](CCC(=O)O)C(=O)O)ccc1[O-])Cc1cc(CCC(=O)NC(P(=O)(O)O)P(=O)(O)O)ccc1[O-].[68Ga+3] [[^68Ga]1f] | 74
O=C(O)CN1CCN(CC(=O)O)CCN(CC(=O)NC(P(=O)(O)O)P(=O)(O)O)CCN(CC(=O)O)CC1.[68Ga] [[^68Ga]BPAMD, reference compound] | 19
O=C([O-])CN(CCN(CC(=O)[O-])Cc1cc(CCC(=O)NC(P(=O)(O)O)P(=O)(O)O)ccc1[O-])Cc1cc(CCC(=O)NCC(=O)O)ccc1[O-].[68Ga+3] [[^68Ga]1c] | 49
C[C@H](NC(=O)CCc1ccc([O-])c(CN(CCN(CC(=O)[O-])Cc2cc(CCC(=O)NC(P(=O)(O)O)P(=O)(O)O)ccc2[O-])CC(=O)[O-])c1)C(=O)O.[68Ga+3] [[^68Ga]1d] | 64
O=C([O-])CN(CCN(CC(=O)[O-])Cc1cc(CCC(=O)NC(P(=O)(O)O)P(=O)(O)O)ccc1[O-])Cc1cc(CCC(=O)NCCCNC(=O)CCc2ccc(O)c(CN(CCN(CC(=O)O)Cc3cc(CCC(=O)NC(P(=O)(O)O)P(=O)(O)O)ccc3O)CC(=O)O)c2)ccc1[O-].[68Ga+3] [[^68Ga]3] | 14
O=C([O-])CN(CCN(CC(=O)[O-])Cc1cc(CCC(=O)NC(P(=O)(O)O)P(=O)(O)O)ccc1[O-])Cc1cc(CCC(=O)NCCCCCC(=O)NCCCC[C@H](NC(=O)N[C@@H](CCC(=O)O)C(=O)O)C(=O)O)ccc1[O-].[68Ga+3] [[^68Ga]1g] | 46
O=C([O-])CN(CCN(CC(=O)[O-])Cc1cc(CCC(=O)NC(P(=O)(O)O)P(=O)(O)O)ccc1[O-])Cc1cc(CCC(=O)NC(P(=O)(O)O)P(=O)(O)O)ccc1[O-].[68Ga+3] [[^68Ga]2] | 58
O=C([O-])CN(CCN(CC(=O)[O-])Cc1cc(CCC(=O)NC(P(=O)(O)O)P(=O)(O)O)ccc1[O-])Cc1cc(CCC(=O)O)ccc1[O-].[68Ga+3] [[^68Ga]1a] | 96

---

Reported Biodistribution: Muscle by item:
# protocol notes: In vivo biodistribution in mice
# Parameters: species or system normal CD-1 male mice
# condition info: iv, 2 min post injection
quantity measured: Biodistribution: Muscle

compound | reported result
O=C([O-])CN(CCN(CC(=O)[O-])Cc1cc(CCC(=O)NC(P(=O)(O)O)P(=O)(O)O)ccc1[O-])Cc1cc(CCC(=O)NCCCNC(=O)CCc2ccc(O)c(CN(CCN(CC(=O)O)Cc3cc(CCC(=O)NC(P(=O)(O)O)P(=O)(O)O)ccc3O)CC(=O)O)c2)ccc1[O-].[68Ga+3] [[^68Ga]3] | 1.62 ± 0.47 % dose/g
C[C@H](NC(=O)CCc1ccc([O-])c(CN(CCN(CC(=O)[O-])Cc2cc(CCC(=O)NC(P(=O)(O)O)P(=O)(O)O)ccc2[O-])CC(=O)[O-])c1)C(=O)O.[68Ga+3] [[^68Ga]1d] | 1.72 ± 0.15 % dose/g
O=C(O)CN1CCN(CC(=O)O)CCN(CC(=O)NC(P(=O)(O)O)P(=O)(O)O)CCN(CC(=O)O)CC1.[68Ga] [[^68Ga]BPAMD, reference compound] | 1.63 ± 0.35 % dose/g
O=C([O-])CN(CCN(CC(=O)[O-])Cc1cc(CCC(=O)N[C@@H](CC(=O)O)C(=O)O)ccc1[O-])Cc1cc(CCC(=O)NC(P(=O)(O)O)P(=O)(O)O)ccc1[O-].[68Ga+3] [[^68Ga]1e] | 1.71 ± 0.19 % dose/g
O=C([O-])CN(CCN(CC(=O)[O-])Cc1cc(CCC(=O)NC(P(=O)(O)O)P(=O)(O)O)ccc1[O-])Cc1cc(CCC(=O)NC2C(O)OC(CO)C(O)C2O)ccc1[O-].[68Ga+3] (stereo not shown) [[^68Ga]1b] | 1.79 ± 0.28 % dose/g
O=C([O-])CN(CCN(CC(=O)[O-])Cc1cc(CCC(=O)NC(P(=O)(O)O)P(=O)(O)O)ccc1[O-])Cc1cc(CCC(=O)NCCNC(=O)CN2CCN(CC(=O)O)CCN(CC(=O)O)CCN(CC(=O)O)CC2)ccc1[O-].[68Ga+3] [[^68Ga]1h] | 1.92 ± 0.14 % dose/g
O=C([O-])CN(CCN(CC(=O)[O-])Cc1cc(CCC(=O)NC(P(=O)(O)O)P(=O)(O)O)ccc1[O-])Cc1cc(CCC(=O)NCC(=O)O)ccc1[O-].[68Ga+3] [[^68Ga]1c] | 1.68 ± 0.11 % dose/g
O=C([O-])CN(CCN(CC(=O)[O-])Cc1cc(CCC(=O)NC(P(=O)(O)O)P(=O)(O)O)ccc1[O-])Cc1cc(CCC(=O)NC(P(=O)(O)O)P(=O)(O)O)ccc1[O-].[68Ga+3] [[^68Ga]2] | 2.26 ± 0.34 % dose/g
O=C([O-])CN(CCN(CC(=O)[O-])Cc1cc(CCC(=O)NC(P(=O)(O)O)P(=O)(O)O)ccc1[O-])Cc1cc(CCC(=O)O)ccc1[O-].[68Ga+3] [[^68Ga]1a] | 1.80 ± 0.16 % dose/g
O=C([O-])CN(CCN(CC(=O)[O-])Cc1cc(CCC(=O)N[C@@H](CCC(=O)O)C(=O)O)ccc1[O-])Cc1cc(CCC(=O)NC(P(=O)(O)O)P(=O)(O)O)ccc1[O-].[68Ga+3] [[^68Ga]1f] | 2.10 ± 0.12 % dose/g

---

# protocol notes: In vivo biodistribution in mice
# Parameters: species or system normal CD-1 male mice
# condition info: iv, 30 min (0.5 hr) post injection
quantity measured: Biodistribution: Brain (% dose/g)

compound | quantity measured | reported result
O=C([O-])CN(CCN(CC(=O)[O-])Cc1cc(CCC(=O)O)ccc1[O-])Cc1cc(CCC(=O)O)ccc1[O-].[68Ga+3] [[^68Ga]HBED-CC, reference compound] | Biodistribution: Brain | 0.04
O=C([O-])CN(CCN(CC(=O)[O-])Cc1cc(CCC(=O)NC(P(=O)(O)O)P(=O)(O)O)ccc1[O-])Cc1cc(CCC(=O)NCC(=O)O)ccc1[O-].[68Ga+3] [[^68Ga]1c] | Biodistribution: Brain | 0.05
O=C([O-])CN(CCN(CC(=O)[O-])Cc1cc(CCC(=O)NC(P(=O)(O)O)P(=O)(O)O)ccc1[O-])Cc1cc(CCC(=O)O)ccc1[O-].[68Ga+3] [[^68Ga]1a] | Biodistribution: Brain | 0.02

---

# protocol notes: In vivo biodistribution in mice
# Set-up: species or system normal CD-1 male mice
# condition info: iv, 120 min post injection
quantity measured: Biodistribution: Blood (% dose/g)

compound | unit of measurement | reported result
O=C([O-])CN(CCN(CC(=O)[O-])Cc1cc(CCC(=O)NC(P(=O)(O)O)P(=O)(O)O)ccc1[O-])Cc1cc(CCC(=O)O)ccc1[O-].[68Ga+3] [[^68Ga]1a] | % dose/g | 0.07
[18F-].[Na+] [[^18F]NaF, reference compound] | % dose/g | 0.03
C[C@H](NC(=O)CCc1ccc([O-])c(CN(CCN(CC(=O)[O-])Cc2cc(CCC(=O)NC(P(=O)(O)O)P(=O)(O)O)ccc2[O-])CC(=O)[O-])c1)C(=O)O.[68Ga+3] [[^68Ga]1d] | % dose/g | 0.06

---

# protocol notes: In vivo biodistribution in mice
# Design: species or system normal CD-1 male mice
# condition info: iv, 30 min (0.5 hr) post injection
quantity measured: Biodistribution: Skin (% dose/g)

compound | quantity measured | unit of measurement | reported result
O=C([O-])CN(CCN(CC(=O)[O-])Cc1cc(CCC(=O)NC(P(=O)(O)O)P(=O)(O)O)ccc1[O-])Cc1cc(CCC(=O)NC(P(=O)(O)O)P(=O)(O)O)ccc1[O-].[68Ga+3] [[^68Ga]2] | Biodistribution: Skin | % dose/g | 0.71
O=C([O-])CN(CCN(CC(=O)[O-])Cc1cc(CCC(=O)NC(P(=O)(O)O)P(=O)(O)O)ccc1[O-])Cc1cc(CCC(=O)O)ccc1[O-].[68Ga+3] [[^68Ga]1a] | Biodistribution: Skin | % dose/g | 0.42
O=C([O-])CN(CCN(CC(=O)[O-])Cc1cc(CCC(=O)NC(P(=O)(O)O)P(=O)(O)O)ccc1[O-])Cc1cc(CCC(=O)NCCCNC(=O)CCc2ccc(O)c(CN(CCN(CC(=O)O)Cc3cc(CCC(=O)NC(P(=O)(O)O)P(=O)(O)O)ccc3O)CC(=O)O)c2)ccc1[O-].[68Ga+3] [[^68Ga]3] | Biodistribution: Skin | % dose/g | 1.10
